- Measured target: Muscarinic acetylcholine receptor M3 (Cavia porcellus, UniProt Q8VH26)
- Sequence (Q8VH26 whole entry): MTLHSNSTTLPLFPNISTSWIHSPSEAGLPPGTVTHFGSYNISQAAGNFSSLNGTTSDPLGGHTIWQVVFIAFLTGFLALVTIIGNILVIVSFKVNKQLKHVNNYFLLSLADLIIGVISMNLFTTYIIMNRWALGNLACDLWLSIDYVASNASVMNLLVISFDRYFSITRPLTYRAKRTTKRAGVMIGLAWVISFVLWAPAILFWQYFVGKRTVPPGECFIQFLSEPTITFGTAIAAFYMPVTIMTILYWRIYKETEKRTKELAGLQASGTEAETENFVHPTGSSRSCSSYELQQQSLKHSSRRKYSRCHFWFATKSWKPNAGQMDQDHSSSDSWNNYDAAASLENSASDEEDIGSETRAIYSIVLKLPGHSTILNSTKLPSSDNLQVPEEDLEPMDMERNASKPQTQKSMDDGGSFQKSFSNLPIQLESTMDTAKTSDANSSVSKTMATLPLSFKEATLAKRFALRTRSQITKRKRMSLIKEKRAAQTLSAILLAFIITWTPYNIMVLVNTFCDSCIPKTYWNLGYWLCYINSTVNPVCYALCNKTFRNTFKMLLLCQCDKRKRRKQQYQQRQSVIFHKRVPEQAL
- Assay overview: Antagonist activity at M3 receptor in Dunkin-Hartley guinea pig trachea assessed as inhibition of methacholine-induced airway smooth muscle contraction after 1 to 4 hrs
- Measurement parameters: read-out: pA2 (converted)
// returns false unless Kb is strictly below 0.4 nM, in which case true

Solved cases below.
smiles_code=O=C(C[N+]12CCC(CC1)[C@@H](OC(=O)C1(C3=CC=CC3)CCCCCC1)C2)Nc1cncc(Cl)n1 assigned_label=false
smiles_code=O=C(O[C@H]1C[N+]2(Cc3cc(-c4ccccc4)no3)CCC1CC2)C1(C2=CC=CC2)CCCCCC1 assigned_label=true

Data request: A record lists `O=C(O[C@H]1C[N+]2(CCCOc3ccccc3)CCC1CC2)C1(C2=CC=CC2)CCCCCC1` . Is its Kb below 0.4 nM?
Data returned: false

Data request: A record lists `Cc1ccc(CC[N+]23CCC(CC2)[C@@H](OC(=O)C2(C4=CC=CC4)CCCCCC2)C3)s1` . Is its Kb below 0.4 nM?
Data returned: true

Data request: Item `O=C(O[C@H]1C[N+]2(CCOCc3ccccc3)CCC1CC2)C1(C2=CC=CC2)CCCCCC1` : Kb beneath 0.4 nM, strictly?
Data returned: false

Data request: Does the reported Kb of the following compound sit strictly below 0.4 nM? `O=C(O[C@H]1C[N+]2(Cc3cc(-c4ccccc4)on3)CCC1CC2)C1(C2=CC=CC2)CCCCCC1`
Data returned: false

Data request: Does the reported Kb of `NC(=O)C[N+]12CCC(CC1)[C@@H](OC(=O)C1(C3=CC=CC3)CCCCCC1)C2` stay below 0.4 nM?
Data returned: true

====

- Measured target: UniProt:P20309
- Sequence (P20309 whole entry): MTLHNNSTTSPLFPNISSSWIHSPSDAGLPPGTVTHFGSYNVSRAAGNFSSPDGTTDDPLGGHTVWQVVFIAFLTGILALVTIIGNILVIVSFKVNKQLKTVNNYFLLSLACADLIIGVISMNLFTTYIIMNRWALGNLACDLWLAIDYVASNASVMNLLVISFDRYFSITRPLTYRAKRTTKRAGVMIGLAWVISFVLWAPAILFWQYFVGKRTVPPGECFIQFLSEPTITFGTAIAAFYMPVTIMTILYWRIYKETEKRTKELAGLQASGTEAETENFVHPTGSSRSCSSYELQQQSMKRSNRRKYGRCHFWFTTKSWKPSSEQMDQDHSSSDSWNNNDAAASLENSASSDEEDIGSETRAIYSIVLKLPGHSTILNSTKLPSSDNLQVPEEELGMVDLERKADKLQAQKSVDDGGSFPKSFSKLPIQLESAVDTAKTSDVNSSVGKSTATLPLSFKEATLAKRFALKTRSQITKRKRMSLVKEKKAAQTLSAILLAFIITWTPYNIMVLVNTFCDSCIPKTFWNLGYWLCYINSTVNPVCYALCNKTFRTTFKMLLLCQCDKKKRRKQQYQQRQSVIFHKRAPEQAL
- Assay overview: Displacement of [3H]NMS from recombinant human M3 receptor expressed in CHO-K1 cells after 16 hrs by SPA method
- Assay type: cell-based
Quantity: IC50 (nM)
Answers are plain numbers, in nM.

Recorded results for 2 molecules are shown here.
smiles_code=O=C(C[N+]12CCC(CC1)[C@H](OC(=O)C1(C3=CC=CC3)CCCCCC1)C2)Nc1ccccn1 val=31.6
smiles_code=O=C(O[C@H]1C[N+]2(CCCc3ccncc3)CCC1CC2)C1(c2cccs2)CCCCCC1 val=0.0501

// moving on: another record for IC50
Data request: # input molecule: `O=C(O[C@H]1C[N+]2(Cc3cc(-c4ccccc4)no3)CCC1CC2)C1(C2=CC=CC2)CCCCCC1` ; wanted: its IC50
Data returned: 0.251

====

- Assay overview: Half life in guinea pig lung administered via intratracheal instillation at 1 ug/kg by HPLC-MS analysis
- Type: ADME, tissue-based, Cavia porcellus
- Measurement parameters: inhaled or intranasal, 0.001 mg/kg
Classification field: YES = half-life at or over 20 h; NO = half-life under 20 h.

smiles_code=O=C(C[N+]12CCC(CC1)[C@@H](OC(=O)C1(C3=CC=CC3)CCCCCC1)C2)Nc1cccnn1 assigned_label=YES
smiles_code=NC(=O)C[N+]12CCC(CC1)[C@@H](OC(=O)C1(C3=CC=CC3)CCCCCC1)C2 assigned_label=NO
smiles_code=O=C(O[C@H]1C[N+]2(Cc3nnc(-c4ccccc4)o3)CCC1CC2)C1(C2=CC=CC2)CCCCCC1 assigned_label=YES

Data request: Given the entry `Cc1cc(NC(=O)C[N+]23CCC(CC2)[C@@H](OC(=O)C2(C4=CC=CC4)CCCCCC2)C3)no1` , answer whether its half-life meets or surpasses 20 h.
Data returned: YES

Data request: Tell me whether half-life is at least 20 h here: `Cc1ccc(CCC[N+]23CCC(CC2)[C@@H](OC(=O)C2(C4=CC=CC4)CCCCCC2)C3)cn1`
Data returned: NO
